system: SF-539; assay: Cytotoxicity against human SF539 cells assessed as effect on cell growth at 10 uM incubated for 48 hrs by sulforhodamine B assay; type: cell-based; details: sf-539, 48 h
ASSAY METRIC: Activity

CN1C(=O)CC[C@H]1C(=O)NCc1cccc(C(F)(F)F)c1Cl | Non-Toxic
N#Cc1ccc(N2C(=O)CC[C@H]2C(=O)NCc2ccc(Cl)cc2Cl)cc1 | Non-Toxic
O=C1N[C@H](C(=O)NCc2ccc(Cl)cc2Cl)CO1 | Non-Toxic

====

test system: MOLT-4; experiment: Cytotoxicity against human MOLT4 cells assessed as effect on cell growth at 10 uM incubated for 48 hrs by sulforhodamine B assay; assay type: cell-based; conditions: molt-4, 48 h
ASSAY METRIC: Activity

Here is how some molecules turned out for Activity.
O=C(NCc1ccc(Cl)cc1Cl)[C@@H]1CCC(=O)N1Cc1ccc(Cl)cc1 | Non-Toxic
O=C(NCc1ccc(Cl)cc1Cl)[C@@H]1CCC(=O)N1Cc1ccccc1 | Non-Toxic
O=C1N[C@H](C(=O)NCc2ccc(Cl)cc2Cl)C/C1=C/NCc1ccc(Cl)cc1Cl | Non-Toxic
CN(C)/C=C1\C[C@@H](C(=O)NCc2ccc(Cl)cc2Cl)N(c2cccs2)C1=O | Non-Toxic

Request the reported Activity associated with `CN1C(=O)CC[C@H]1C(=O)NCc1cc(C(F)(F)F)ccc1Cl`
Non-Toxic

Request the reported Activity associated with `O=C(NCc1ccc(Cl)cc1Cl)[C@@H]1CCC(=O)N1c1ccsc1`
Non-Toxic

Request the reported Activity associated with CN(C)/C=C1\C[C@H]2C(=O)N(Cc3ccc(Cl)cc3Cl)C(N(C)C)N2C1=O (stereo not given in full)
Non-Toxic

Request the reported Activity associated with `COc1ccc(CN2C(=O)CC[C@H]2C(=O)NCCc2ccccc2)cc1`
Non-Toxic

Request the reported Activity associated with CN(C)/C=C1\C[C@H]2C(=O)N(Cc3ccccc3Cl)C(N(C)C)N2C1=O (stereo not given in full)
Non-Toxic

Request the reported Activity associated with `O=C1N[C@H](C(=O)NCc2ccc(Cl)cc2Cl)CO1`
Non-Toxic
